- target-entity: Programmed cell death protein 4 (Homo sapiens) (UniProt Q53EL6)
- Sequence (Q53EL6 whole entry): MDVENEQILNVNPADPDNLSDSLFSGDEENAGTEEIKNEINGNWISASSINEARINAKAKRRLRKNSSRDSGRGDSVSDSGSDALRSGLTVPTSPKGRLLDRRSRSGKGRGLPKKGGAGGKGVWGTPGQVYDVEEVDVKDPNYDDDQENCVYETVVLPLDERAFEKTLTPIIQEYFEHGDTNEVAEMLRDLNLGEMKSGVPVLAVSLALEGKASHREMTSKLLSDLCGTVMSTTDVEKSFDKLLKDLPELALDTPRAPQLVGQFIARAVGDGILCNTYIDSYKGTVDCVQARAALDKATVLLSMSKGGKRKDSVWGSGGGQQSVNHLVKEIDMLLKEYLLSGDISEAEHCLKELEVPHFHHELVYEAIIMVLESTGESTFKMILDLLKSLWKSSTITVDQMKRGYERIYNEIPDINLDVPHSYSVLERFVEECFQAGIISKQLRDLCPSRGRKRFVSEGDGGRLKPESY
- experimental-protocol: Inhibition of PDCD4 in human HeLa cells tranfected with pCI-neo-luciferase-PDCD4 3'-UTR plasmid assessed as fold change in luciferase signal by measuring relative luciferase unit by luciferase reporter assay; also: test concentration or dose not given here
- Format: cell-based
readout-type: RLU
Lab note: jot down the number only; don't add units.

In the examples that follow, each entry is paired with its recorded RLU.
Cc1oc(-c2ccc(Cl)cc2)nc1CCl
1.11
COc1ccc(S(=O)(=O)N(Cc2nc(-c3ccccc3)oc2C)[C@@H](C(=O)O)C(C)C)cc1
1.01
COc1ccc(-c2nc(CCl)c(C)o2)cc1
1.05

Problem: Name the recorded RLU for COc1ccc(S(=O)(=O)N(Cc2nc(-c3ccc(OCc4ccccc4)cc3)oc2C)[C@@H](C(=O)O)C(C)C)cc1 .
Solution: 1.65

Problem: // repeat for COc1ccc(S(=O)(=O)N(Cc2nc(-c3ccc([N+](=O)[O-])cc3)oc2C)[C@@H](C(=O)O)C(C)C)cc1 and report
Solution: 1.02

Problem: // repeat for COC(=O)[C@@H](C(C)C)N(Cc1nc(-c2cc(OC)c(OC)c(OC)c2)oc1C)S(=O)(=O)c1ccc(OC)cc1 and report
Solution: 1.03

Problem: // repeat for COC(=O)[C@@H](C(C)C)N(Cc1nc(-c2ccc(Cl)cc2)oc1C)S(=O)(=O)c1ccc(C)cc1 and report
Solution: 1.08

Problem: // repeat for COC(=O)[C@@H](C(C)C)N(Cc1nc(-c2ccc(OC)cc2)oc1C)S(=O)(=O)c1ccc(OC)cc1 and report
Solution: 1.03

Problem: // repeat for COC(=O)[C@H](NS(=O)(=O)c1ccc(OC)cc1)C(C)C and report
Solution: 1.06

Problem: // repeat for COc1cc(-c2nc(CCl)c(C)o2)cc(OC)c1OC and report
Solution: 2.01

Problem: // repeat for COC(=O)[C@@H](C(C)C)N(Cc1nc(-c2ccc(OCc3ccccc3)cc2)oc1C)S(=O)(=O)c1ccc(OC)cc1 and report
Solution: 1.32

Problem: // repeat for COc1ccc(-c2nc(CN([C@@H](C(=O)O)C(C)C)S(=O)(=O)c3ccc(C)cc3)c(C)o2)cc1OC and report
Solution: 0.97

Problem: // repeat for COc1ccc(S(=O)(=O)N(Cc2nc(-c3ccc(Cl)cc3)oc2C)[C@@H](C(=O)O)C(C)C)cc1 and report
Solution: 0.97

Problem: // repeat for COC(=O)[C@@H](C(C)C)N(Cc1nc(-c2ccc(Cl)cc2)oc1C)S(=O)(=O)c1ccc(OC)cc1 and report
Solution: 0.93

Problem: // repeat for COC(=O)[C@H](NS(=O)(=O)c1ccc(C)cc1)C(C)C and report
Solution: 1.03
